target: AKT1 (Homo sapiens, UniProt P31749); construct: purchased Panvera; experiment: In vitro kinase assay: peptide phosphorylation by AKT1; type: biochemical; conditions: normalized to best substrate
Sequence (P31749 whole entry, species assumed): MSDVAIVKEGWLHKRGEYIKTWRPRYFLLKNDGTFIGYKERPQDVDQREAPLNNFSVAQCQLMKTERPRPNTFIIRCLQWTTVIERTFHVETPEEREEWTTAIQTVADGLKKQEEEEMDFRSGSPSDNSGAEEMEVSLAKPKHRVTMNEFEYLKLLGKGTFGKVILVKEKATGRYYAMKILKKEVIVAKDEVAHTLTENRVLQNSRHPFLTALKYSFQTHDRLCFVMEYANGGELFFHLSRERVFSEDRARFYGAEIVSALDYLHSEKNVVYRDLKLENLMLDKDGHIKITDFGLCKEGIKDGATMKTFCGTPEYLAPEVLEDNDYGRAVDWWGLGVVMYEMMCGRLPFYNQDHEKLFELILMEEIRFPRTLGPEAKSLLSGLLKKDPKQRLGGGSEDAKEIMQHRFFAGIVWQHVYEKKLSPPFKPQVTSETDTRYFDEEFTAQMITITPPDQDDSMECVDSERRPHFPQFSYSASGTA
Mark each entry y if its AKT1 phosphorylation sits below 7%, and n for all others.

Here's what some known entries look like.
Asked: Is 7% strictly greater than the substance's reported AKT1 phosphorylation? substance: 88 (KKPFKLSGLSFKRNRKE) [compound 88]
Given back: n

Asked: Is 7% strictly greater than the substance's reported AKT1 phosphorylation? substance: 77 (KKKKRASFKRKSSKKG) [compound 77]
Given back: n

Asked: Is 7% strictly greater than the substance's reported AKT1 phosphorylation? substance: 78 (KFARKSTRRSIRLPE) [compound 78]
Given back: y

Asked: Is 7% strictly greater than the substance's reported AKT1 phosphorylation? substance: 89 (EYLERRASRRRAV) [compound 89]
Given back: y

Asked: Is 7% strictly greater than the substance's reported AKT1 phosphorylation? substance: 106 (EILSRRPSYRKILND) [compound 106]
Given back: n

Asked: Is 7% strictly greater than the substance's reported AKT1 phosphorylation? substance: 109 (KEVVRTDSLKGRRGR) [compound 109]
Given back: y

Asked: Is 7% strictly greater than the substance's reported AKT1 phosphorylation? substance: 105 (ALRRPSLRREADD) [compound 105]
Given back: n

Asked: Is 7% strictly greater than the substance's reported AKT1 phosphorylation? substance: 108 (KATTKKRTLRKNDRK) [compound 108]
Given back: y

Asked: Is 7% strictly greater than the substance's reported AKT1 phosphorylation? substance: 97 (KKRSSKKEASMKKVVRP) [compound 97]
Given back: n

Asked: Is 7% strictly greater than the substance's reported AKT1 phosphorylation? substance: 85 (RFARKGSLRQKNV) [compound 85]
Given back: n

New cases:
Asked: Is 7% strictly greater than the substance's reported AKT1 phosphorylation? substance: 81 (KRERKTSSKSSVRKRR) [compound 81]
Given back: n

Asked: Is 7% strictly greater than the substance's reported AKT1 phosphorylation? substance: 92 (DGQKRKKSLRKKLD) [compound 92]
Given back: y

Asked: Is 7% strictly greater than the substance's reported AKT1 phosphorylation? substance: 90 (AQIVKRASLKRGKQ) [compound 90]
Given back: y

Asked: Is 7% strictly greater than the substance's reported AKT1 phosphorylation? substance: 86 (RQRKRKLSFRRRTDKD) [compound 86]
Given back: n

Asked: Is 7% strictly greater than the substance's reported AKT1 phosphorylation? substance: 113 (GENVLKKSMKSRVKG) [compound 113]
Given back: n

Asked: Is 7% strictly greater than the substance's reported AKT1 phosphorylation? substance: 111 (KKKRFSFKKSFKLSGFSFKK) [compound 111]
Given back: y

Asked: Is 7% strictly greater than the substance's reported AKT1 phosphorylation? substance: 83 (RKIPKRPGSVHRTPSRQ) [compound 83]
Given back: y

* * *

system: PKC; experiment: In vitro phosphorylation by PKC (average of isoforms alpha, epsilon, delta, theta); assay type: biochemical; settings: average of PKC-alpha, -epsilon, -theta, normalized to best substrate
Form field: PKC average (one value per entry).
Numbers only here, please. The scale is %.

Sample records with PKC average:
PKC average for 84 (QKKSRLRRRASQLKI) [compound 84] is 53

PKC average for 81 (KRERKTSSKSSVRKRR) [compound 81] is 56

PKC average for 80 (KKKKKRFSFKKSFKL) [compound 80] is 56

PKC average for 94 (KLAVGRHSFSRRSGV) [compound 94] is 36

New cases:
PKC average for 104 (EKIKRSSLKKVDSLKK) [compound 104] is 22

PKC average for 100 (WKGKRRSKARKKRK) [compound 100] is 26

PKC average for 101 (GAPPRRSSIRNAH) [compound 101] is 23

PKC average for 113 (GENVLKKSMKSRVKG) [compound 113] is 10

PKC average for 86 (RQRKRKLSFRRRTDKD) [compound 86] is 48

PKC average for 77 (KKKKRASFKRKSSKKG) [compound 77] is 80

PKC average for 96 (RGFLRSASLGRRASFHLE) [compound 96] is 33

PKC average for 82 (PRLIRRGSKKRPAR) [compound 82] is 56

* * *

target: PKC-delta (Homo sapiens, UniProt Q05655); construct: purchased Calbiochem; test: In vitro kinase assay: peptide phosphorylation by PKC-delta; assay type: biochemical; conditions: peptide concentration of 10 nM; percentage of phosphorylation of the best validating peptide substrate
Sequence (Q05655 whole entry): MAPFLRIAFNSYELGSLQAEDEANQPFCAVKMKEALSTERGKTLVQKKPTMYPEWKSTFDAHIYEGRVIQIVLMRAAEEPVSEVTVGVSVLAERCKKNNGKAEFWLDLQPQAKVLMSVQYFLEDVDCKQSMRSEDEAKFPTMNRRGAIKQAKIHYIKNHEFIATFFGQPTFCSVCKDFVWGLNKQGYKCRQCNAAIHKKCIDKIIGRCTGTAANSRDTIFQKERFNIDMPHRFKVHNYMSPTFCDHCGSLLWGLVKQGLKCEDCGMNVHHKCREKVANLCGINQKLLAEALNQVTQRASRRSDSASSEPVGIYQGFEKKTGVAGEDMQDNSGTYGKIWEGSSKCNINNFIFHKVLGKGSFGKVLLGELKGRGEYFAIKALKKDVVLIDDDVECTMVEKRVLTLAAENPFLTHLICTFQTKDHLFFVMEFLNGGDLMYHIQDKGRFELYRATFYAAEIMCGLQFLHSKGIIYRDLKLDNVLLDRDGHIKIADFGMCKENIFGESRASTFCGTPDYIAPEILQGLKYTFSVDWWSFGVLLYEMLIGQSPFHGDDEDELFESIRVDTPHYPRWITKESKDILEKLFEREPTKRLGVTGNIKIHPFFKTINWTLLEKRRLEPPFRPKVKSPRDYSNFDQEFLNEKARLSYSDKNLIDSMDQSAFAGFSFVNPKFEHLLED
reported endpoint: Measured in vitro phosphorylation by PKC-delta (%)
Numbers only here, please. The scale is %.

Measured in vitro phosphorylation by PKC-delta for 61 (VDNILKKSNKKLEEL) [compound 61] is 1

Measured in vitro phosphorylation by PKC-delta for 16 (DGQKRKKSLRKKLD) [compound 16] is 17

Measured in vitro phosphorylation by PKC-delta for 25 (EILSRRPSYRKILND) [compound 25] is 9

Measured in vitro phosphorylation by PKC-delta for 62 (AVRDMRQTVAVGVIK) [compound 62] is 1

Measured in vitro phosphorylation by PKC-delta for 54 (ENLRKVTTDKKSLAY) [compound 54] is 2

Measured in vitro phosphorylation by PKC-delta for 27 (KKRKKKSSKSLAHA) [compound 27] is 8

Measured in vitro phosphorylation by PKC-delta for 37 (AYIERMNSIHRDLRA) [compound 37] is 3

Measured in vitro phosphorylation by PKC-delta for 41 (FVHQASFKFGQGD) [compound 41] is 3

* * *

biological target: PKC-alpha (Homo sapiens, UniProt P17252); construct: purchased Calbiochem; test: In vitro kinase assay: peptide phosphorylation by PKC-alpha; format: biochemical; settings: peptide concentration 1 uM
reported endpoint: phosphorylation by PKC alpha
Field format: numeric only.

Sample records with phosphorylation by PKC alpha:
Measured on PKC-alpha (Homo sapiens, UniProt P17252), 139 (RPTPGDGEKRSRIKKSKKRK) [compound 139] has a documented phosphorylation by PKC alpha of 39

Measured on PKC-alpha (Homo sapiens, UniProt P17252), 130 (EYLERRASRRRAV) [compound 130] has a documented phosphorylation by PKC alpha of 38

Measured on PKC-alpha (Homo sapiens, UniProt P17252), 160 (PFEVVWYKDKRQLRSSKKYK) [compound 160] has a documented phosphorylation by PKC alpha of 9

Measured on PKC-alpha (Homo sapiens, UniProt P17252), 122 (RAITSTLASSFKRRR) [compound 122] has a documented phosphorylation by PKC alpha of 43

Measured on PKC-alpha (Homo sapiens, UniProt P17252), 154 (KKFFTQGWAGWRKKTSFRKP) [compound 154] has a documented phosphorylation by PKC alpha of 16

Then there is this substance:
Measured on PKC-alpha (Homo sapiens, UniProt P17252), 166 (MAQIERGEARIQRRISIKKA) [compound 166] has a documented phosphorylation by PKC alpha of 22

* * *

tested on: PKC; test: In vitro phosphorylation by PKC (average of isoforms alpha, epsilon, delta, theta); format: biochemical; settings: average of PKC-alpha, -epsilon, -theta, normalized to best substrate
Assign 1 (yes) whenever PKC average does not fall below 30%; assign 0 (no) whenever it does.

Asked: Evaluate 98 (AGPLRKSSLKKGGRL) [compound 98] : PKC average at minimum 30%?
Given back: 0 (no)

Asked: Evaluate 97 (KKRSSKKEASMKKVVRP) [compound 97] : PKC average at minimum 30%?
Given back: 0 (no)

Asked: Evaluate 92 (DGQKRKKSLRKKLD) [compound 92] : PKC average at minimum 30%?
Given back: 1 (yes)

Asked: Evaluate 102 (AGSFKRNSIKKIV) [compound 102] : PKC average at minimum 30%?
Given back: 0 (no)

Asked: Evaluate 79 (NRKKKRTSFKRKA) [compound 79] : PKC average at minimum 30%?
Given back: 1 (yes)

Asked: Evaluate 106 (EILSRRPSYRKILND) [compound 106] : PKC average at minimum 30%?
Given back: 0 (no)

Asked: Evaluate 91 (VHYTSKDTLRKRHYWR) [compound 91] : PKC average at minimum 30%?
Given back: 1 (yes)

Asked: Evaluate 95 (KKKFRTPSFLKKSKK) [compound 95] : PKC average at minimum 30%?
Given back: 1 (yes)

New cases:
Asked: Evaluate 103 (LLKKRDSFRTPRDSKLE) [compound 103] : PKC average at minimum 30%?
Given back: 0 (no)

Asked: Evaluate 85 (RFARKGSLRQKNV) [compound 85] : PKC average at minimum 30%?
Given back: 1 (yes)

Asked: Evaluate 107 (QKRHARVTVKYDRRE) [compound 107] : PKC average at minimum 30%?
Given back: 0 (no)

Asked: Evaluate 83 (RKIPKRPGSVHRTPSRQ) [compound 83] : PKC average at minimum 30%?
Given back: 1 (yes)
